Tested target: CXCL2 (human, UniProt P19875 35-107)
Protocol summary: BLI

{"columns": ["Binder", "Units label", "Kd"],
 "data": [
  ["P1172_IXORI (natural protein) FLLKSQLCYCLFGIELIGAGIHALHEDEIFTVDYCGTNCTKQSNGSWTTCPGNCSCYHEDGKTDGFCLSTEYTDFTQFPNLTSEEMDAATPRPE", "nM", 26],
  ["P1126 (natural protein, also: glycosylated) DGGKPQILQRTDKSTDSEWDPQTCPETCIPSKNITCSDGCVCVKLGEEEEGTCFNMTGVDWLGSPSDD", "nM", 5.11],
  ["P1090_IXORI (natural protein) GSKELSGPESSENSIEAAFCDTNCTEGTDGVWSGCSAGCFCVHVGNSTVGRCMTFNGVD", "nM", 3.03],
  ["P675 (natural protein, also: glycosylated) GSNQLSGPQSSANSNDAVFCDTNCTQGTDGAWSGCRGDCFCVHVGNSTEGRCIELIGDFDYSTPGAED", "nM", 24.8],
  ["P942 (natural protein, also: glycosylated) DGGNQLSGPQSSANSNEAVFCDTNCTQGTDEAWSGCRGDCFCVYVGNSTEGRCMMLSGDFDYSTPGAED", "nM", 6.48]
]}

Source listed as paper PMC6643034.
